// data source = patent US9113629B2

Test system: Key Grass and Sedge Weeds as well as Grass Crops
Assay: Post-emergent Test II herbicidal activity (Table 6)
Assay type: in vivo
Details: Triticum aestivum, post-emergence, 336 h, TRZSS (wheat), application rate 70 g ai/ha, read-out: Visual Growth Reduction (%) 14 Days After Application, TRZSS
quantity_measured: pest or weed control at 70 g/ha

1) COc1c(N)nc(-c2cc(F)c(I)cc2F)nc1C(=O)O	45 to 59%

Consider the record given below.
The compound identified as C=Cc1c(N)nc(-c2ccc(C(F)(F)F)c(F)c2)nc1C(=O)OC registered its pest or weed control at 70 g/ha at 0 to 29%
